Kd for assorted binders
biological target: T1, p300 CH1 domain (residues 330–420) (UniProt Q09472 330-420); assay: ITC; peptide in the syringe, p300 in the cell (Fig. 4: 5 μM protein, 60 μM ligand); 40 mM sodium phosphate, pH 7.5, 100 mM NaCl, 1 mM DTT, 35 °C; single-site model, fixed 1:1 stoichiometry; settings: both partners purified
T1 construct: p300 CH1 domain, residues 330–420; The cleavage of GST is said for the anisotropy control; also called p300 with the GST tag cleaved; source: recombinantly expressed as a fusion protein with GST, GST tag cleaved
T1 sequence (Q09472 330-420): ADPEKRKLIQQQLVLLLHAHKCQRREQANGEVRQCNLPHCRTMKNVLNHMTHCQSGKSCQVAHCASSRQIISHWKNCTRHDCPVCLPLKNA
Hi! Could you send only the number? It should be in nM, unit omitted.

Consider the reported Kd for these binders:
HIF-1α 776–826, chemically synthesized peptide (peptide, UniProt Q16665 776-826, looked up, cysteine pairing not given here, source: synthetic peptide (chemical synthesis, see ESI)) peptide: Ac-SDLACRLLGQSMDESGLPQLTSYDCEVNAPIQGSRNLLQGEELLRALDQVN-NH2    52.2
Ac-DEEVLMSLVIEMGLDRIKELPELWLGQNEFDFMTDF-NH2 (peptide, UniProt Q99967 224-259, looked up, source: synthetic peptide (chemical synthesis, see ESI)) [CITED2 224–259, chemically synthesized peptide]    9.1

// moving on: another record for Kd
Problem: Recorded Kd of CITED2 216–269, chemically synthesized peptide (peptide, UniProt Q99967 216-269, looked up, source: synthetic peptide (chemical synthesis, see ESI)) peptide: Ac-NVIDTDFIDEEVLMSLVIEMGLDRIKELPELWLGQNEFDFMTDFVCKQQPSRVS-NH2 , please.
Solution: 26.3
